System: rice plants comprising the TaQ8GTC0 gene introduced therein
Assay: Herbicide resistance test of rice plants comprising the TaQ8GTC0 gene, gellan gum medium, plant height
Assay type: in vivo
Details: Oryza sativa, lineage #2-6; read-out: I50
recorded.endpoint: IC50 (nM)

{"columns": ["test.smiles", "units.of.measure", "assay.result"],
 "data": [
  ["Cn1nc(C(F)(F)F)c(CS(=O)(=O)C2=NOC(C)(C)C2)c1OC(F)F", "nM", 968]
]}

###

Tested on: TaQ8GTC0 protein
Assay: Glutathione conjugation activity of the TaQ8GTC0 protein to VLCFAE-inhibiting herbicides (HPLC)
Format: biochemical, wheat (Triticum aestivum)
Settings: 378 ng TaQ8GTC0 protein, 10 μl of 1 mM herbicide in 200 μl, 30° C., 15 minutes; mean ± standard deviation
recorded.endpoint: Enzyme activity (glutathione conjugation)

{"columns": ["compound", "assay.result"],
 "data": [
  ["CCN(C(=O)n1nnn(-c2ccccc2Cl)c1=O)C1CCCCC1 [Fentrazamide]", "0.93 ± 0.2 μmol/mg protein/15 min"],
  ["CCOc1cc(Cl)c(CS(=O)(=O)C2=NOC(C)(C)C2)cc1Cl", "19.5 ± 8.4 μmol/mg protein/15 min"],
  ["CCc1cccc(CC)c1N(COC)C(=O)CCl", "1.5 ± 0.1 μmol/mg protein/15 min"],
  ["Cn1nc(C(F)(F)F)c(CS(=O)(=O)C2=NOC(C)(C)C2)c1OC(F)F", "11.7 ± 3.7 μmol/mg protein/15 min"],
  ["CCN(CC)C(=O)n1cnc(S(=O)(=O)c2c(C)cc(C)cc2C)n1", "0.46 ± 0.1 μmol/mg protein/15 min"],
  ["CCc1cccc(C)c1N(C(=O)CCl)C(C)COC (stereo not drawn)", "2.2 ± 0.8 μmol/mg protein/15 min"]
]}
